- System Name: TrkC kinase (Homo sapiens (Human), UniProt Q16288)
- Sequence (Q16288 32-839): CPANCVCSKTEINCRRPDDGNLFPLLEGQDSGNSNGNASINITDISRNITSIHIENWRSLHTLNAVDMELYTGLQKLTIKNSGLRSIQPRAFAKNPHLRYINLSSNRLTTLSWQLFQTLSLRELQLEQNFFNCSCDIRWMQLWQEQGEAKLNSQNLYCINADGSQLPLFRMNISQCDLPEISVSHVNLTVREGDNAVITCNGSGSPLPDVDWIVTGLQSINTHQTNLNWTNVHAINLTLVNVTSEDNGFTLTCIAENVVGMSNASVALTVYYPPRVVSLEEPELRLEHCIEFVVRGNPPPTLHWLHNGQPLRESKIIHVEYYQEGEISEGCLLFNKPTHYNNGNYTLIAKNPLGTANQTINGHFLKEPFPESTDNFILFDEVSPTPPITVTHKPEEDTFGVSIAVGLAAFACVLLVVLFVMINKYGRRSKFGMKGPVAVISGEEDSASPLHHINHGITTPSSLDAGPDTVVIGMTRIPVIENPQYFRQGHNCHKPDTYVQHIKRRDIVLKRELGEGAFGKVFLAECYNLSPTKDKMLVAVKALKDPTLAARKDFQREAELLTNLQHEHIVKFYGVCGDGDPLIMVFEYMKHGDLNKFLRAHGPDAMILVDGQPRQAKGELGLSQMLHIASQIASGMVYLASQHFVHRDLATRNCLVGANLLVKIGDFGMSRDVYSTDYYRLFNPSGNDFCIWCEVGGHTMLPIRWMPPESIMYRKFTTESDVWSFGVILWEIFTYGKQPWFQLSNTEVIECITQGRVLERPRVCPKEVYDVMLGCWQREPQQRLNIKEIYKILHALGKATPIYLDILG
pIC50: −log10 of the molar value.
Reported Property: pIC50

In the examples that follow, each entry is paired with its recorded pIC50.
{"columns": ["Compound", "Reported Property", "Measured Result"],
 "data": [
  ["CNC(=O)c1c(N)nn2ccc(N3C[C@@H](F)C[C@@H]3c3cc(F)ccc3F)nc12 [Example 39]", "pIC50", "> 9.00"],
  ["NC(=O)c1c(N)nn2ccc(N3CCC[C@@H]3c3cc(F)ccc3F)nc12 [Example 4]", "pIC50", "> 8.00"],
  ["Nc1nn2ccc(N3CCC[C@@H]3c3cc(F)ccc3F)nc2c1C(=O)N[C@H]1CC[C@H](O)CC1 [Example 12]", "pIC50", "> 9.00"]
]}

Kindly consider the entry below.
INPUT: Give the reported pIC50 for Nc1nn2ccc(N3CCC[C@@H]3c3cc(F)ccc3F)nc2c1C(=O)Nc1ccc(F)cc1 [Example 14] (system: TrkC kinase (Homo sapiens (Human), UniProt Q16288)).
OUTPUT: > 8.00

----------
- Assay Comment: Pharmacokinetic assay in rats
- Format: in vivo
- Study Conditions: rat, po; male SD rats, 5 mg/kg single intragastric administration, plasma
Reported Property: Tmax (h)

(I) NC(=O)c1c(N)nn2ccc(N3C[C@@H](F)C[C@@H]3c3cc(F)ccc3F)nc12 [Example 36]
(II) CNC(=O)c1c(N)nn2ccc(N3C[C@@H](F)C[C@@H]3c3cc(F)ccc3F)nc12 [Example 39]
INPUT: Of I and II , which shows the smaller Tmax value? Answer format: the label of the selected item.
OUTPUT: I

----------
- System Name: TrkB kinase (Homo sapiens (Human))
- Sequence (Q16620 32-822): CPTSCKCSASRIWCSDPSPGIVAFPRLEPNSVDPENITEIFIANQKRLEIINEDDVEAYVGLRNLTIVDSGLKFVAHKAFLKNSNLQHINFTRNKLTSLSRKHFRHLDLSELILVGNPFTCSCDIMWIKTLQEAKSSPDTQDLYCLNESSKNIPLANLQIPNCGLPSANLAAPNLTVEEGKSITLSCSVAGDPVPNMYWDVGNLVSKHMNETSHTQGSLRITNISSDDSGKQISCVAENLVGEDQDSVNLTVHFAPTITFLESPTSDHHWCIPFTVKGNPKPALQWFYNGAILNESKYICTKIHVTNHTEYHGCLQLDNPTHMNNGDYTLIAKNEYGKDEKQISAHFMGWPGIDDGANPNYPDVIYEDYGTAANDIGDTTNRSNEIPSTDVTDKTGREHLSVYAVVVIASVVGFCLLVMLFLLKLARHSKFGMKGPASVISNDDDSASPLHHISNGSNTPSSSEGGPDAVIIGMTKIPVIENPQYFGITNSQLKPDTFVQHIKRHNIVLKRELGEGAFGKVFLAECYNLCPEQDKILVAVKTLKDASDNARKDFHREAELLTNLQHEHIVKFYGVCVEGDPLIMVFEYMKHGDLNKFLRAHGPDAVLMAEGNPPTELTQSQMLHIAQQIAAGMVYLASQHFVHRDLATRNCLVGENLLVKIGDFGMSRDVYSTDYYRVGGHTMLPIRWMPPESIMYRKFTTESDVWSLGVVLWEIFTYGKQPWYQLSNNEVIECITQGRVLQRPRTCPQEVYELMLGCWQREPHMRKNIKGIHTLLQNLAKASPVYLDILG
pIC50: −log10 of the molar value.
Reported Property: pIC50

INPUT: What does the data say about its pIC50? Entry: Nc1nn2ccc(N3CCC[C@@H]3c3cc(F)ccc3F)nc2c1C(=O)Nc1ccc(F)cc1
OUTPUT: > 8.00

----------
- System Name: TrkA kinase (Homo sapiens (Human), UniProt P04629)
- Sequence (P04629 33-796): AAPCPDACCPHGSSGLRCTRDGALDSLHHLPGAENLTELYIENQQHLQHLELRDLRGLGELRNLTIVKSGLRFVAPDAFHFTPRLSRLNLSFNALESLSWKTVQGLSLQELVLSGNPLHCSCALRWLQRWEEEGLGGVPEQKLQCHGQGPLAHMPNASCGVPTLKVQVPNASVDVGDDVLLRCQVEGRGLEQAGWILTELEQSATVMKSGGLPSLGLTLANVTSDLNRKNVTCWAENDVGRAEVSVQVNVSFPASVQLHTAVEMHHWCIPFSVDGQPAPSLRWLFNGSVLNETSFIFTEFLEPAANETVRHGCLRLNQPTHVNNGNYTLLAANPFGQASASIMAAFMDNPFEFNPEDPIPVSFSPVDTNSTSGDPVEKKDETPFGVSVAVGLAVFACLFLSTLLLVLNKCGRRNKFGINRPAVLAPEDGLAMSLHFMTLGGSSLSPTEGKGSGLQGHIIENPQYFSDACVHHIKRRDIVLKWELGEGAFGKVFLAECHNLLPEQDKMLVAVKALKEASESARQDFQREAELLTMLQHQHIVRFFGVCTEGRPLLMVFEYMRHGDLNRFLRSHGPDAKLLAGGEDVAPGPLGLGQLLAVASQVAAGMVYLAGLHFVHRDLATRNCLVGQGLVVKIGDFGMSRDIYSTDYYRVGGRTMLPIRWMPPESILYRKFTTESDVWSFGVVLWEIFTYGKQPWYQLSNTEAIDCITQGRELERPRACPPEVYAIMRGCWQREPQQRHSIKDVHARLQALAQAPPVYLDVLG
- Assay Comment: HTRF assay for inhibitory activity (IC50) against NTRK kinase, TrkA
- Assay type: biochemical
- Study Conditions: Table 1, ATP 40 μM, kinase 0.5 nM
pIC50: −log10 of the molar value.
Entries and their pIC50 values follow.

{"columns": ["Compound", "pIC50"],
 "data": [
  ["Nc1nn2ccc(N3C[C@@H](F)C[C@@H]3c3cc(F)ccc3F)nc2c1C(=O)NOCCO", "> 9.00"],
  ["Nc1nn2ccc(N3CCCC3c3cc(F)ccc3F)nc2c1-c1nc(C(=O)N2CC[C@H](O)C2)cs1 (some centres unmarked)", "> 9.00"],
  ["CCOC(=O)c1c(N)nn2ccc(N3C[C@@H](F)C[C@H]3c3cc(F)ccc3F)nc12", "> 6.30"],
  ["Cc1coc(-c2c(N)nn3ccc(N4CCCC4c4cc(F)ccc4F)nc23)n1 (centres unmarked)", "> 7.60"],
  ["CCOC(=O)c1c(NCCN2CCOCC2)nn2ccc(N3CCC[C@@H]3c3cc(F)ccc3F)nc12", "> 7.00"],
  ["CNc1nn2ccc(N3CCC[C@@H]3c3cc(F)ccc3F)nc2c1C(N)=O", "> 6.30"],
  ["NC(=O)c1c(N)nn2ccc(N3C[C@@H](F)C[C@@H]3c3cc(F)ccc3F)nc12", "> 9.00"],
  ["CCOC(=O)c1c(NC(C)=O)nn2ccc(N3CCC[C@@H]3c3cc(F)ccc3F)nc12", "> 7.60"],
  ["Nc1nn2ccc(N3CCC[C@@H]3c3cc(F)ccc3F)nc2c1C(=O)NCCO", "> 9.00"],
  ["CCNc1nn2ccc(N3CCC[C@@H]3c3cc(F)ccc3F)nc2c1C(=O)OCC", "> 7.00"]
]}

INPUT: What does the data say about its pIC50? Entry: CCOC(=O)c1coc(-c2c(NCc3ccc(OC)cc3)nn3ccc(N4CCCC4c4cc(F)ccc4F)nc23)n1 (centres unmarked)
OUTPUT: > 7.00

INPUT: What does the data say about its pIC50? Entry: CNC(=O)c1c(N)nn2ccc(N3CCC[C@@H]3c3cc(F)ccc3F)nc12
OUTPUT: > 9.00

INPUT: What does the data say about its pIC50? Entry: Nc1nn2ccc(N3C[C@@H](F)C[C@@H]3c3cc(F)ccc3F)nc2c1C(=O)NC1CC1
OUTPUT: > 9.00

INPUT: What does the data say about its pIC50? Entry: CCOC(=O)c1c(N)nn2ccc(N3C[C@@H](F)C[C@@H]3c3cc(F)ccc3F)nc12
OUTPUT: > 9.00

INPUT: What does the data say about its pIC50? Entry: NC(=O)c1c(N)nn2ccc(N3CCCC3c3cc(F)ccc3F)nc12 (centres unmarked)
OUTPUT: > 9.00

INPUT: What does the data say about its pIC50? Entry: Nc1nn2ccc(N3CCCC3c3cc(F)ccc3F)nc2c1-c1cccc(N2CCOCC2)c1 (centres unmarked)
OUTPUT: > 7.60

INPUT: What does the data say about its pIC50? Entry: CCOC(=O)c1c(N)nn2ccc(N3CCC[C@@H]3c3cc(F)ccc3F)nc12
OUTPUT: > 9.00

----------
- Assay Comment: Pharmacokinetic assay in rats
- Format: in vivo
- Study Conditions: rat, po; male SD rats, 5 mg/kg single intragastric administration, plasma; read-out: AUCINF_obs
Reported Property: AUC(0-inf) (ng·h/mL)

(P) NC(=O)c1c(N)nn2ccc(N3C[C@@H](F)C[C@@H]3c3cc(F)ccc3F)nc12 [Example 36]
(Q) CNC(=O)c1c(N)nn2ccc(N3C[C@@H](F)C[C@@H]3c3cc(F)ccc3F)nc12 [Example 39]
INPUT: Of P and Q , which shows the smaller AUC(0-inf) value? Answer format: the label of the selected item.
OUTPUT: Q
(Q: 876 ng·h/mL, P: 2240 ng·h/mL)

----------
- System Name: TrkA kinase (Homo sapiens (Human))
- Assay Comment: HTRF assay for inhibitory activity (IC50) against NTRK kinase, TrkA
- Type: biochemical
- Study Conditions: Table 1, ATP 40 μM, kinase 0.5 nM
pIC50: −log10 of the molar value.
Entries and their pIC50 values follow.

In the examples that follow, each entry is paired with its recorded pIC50.
{"columns": ["Compound", "pIC50"],
 "data": [
  ["Nc1nn2ccc(N3CCC[C@@H]3c3cc(F)ccc3F)nc2c1C(=O)N1CCC(O)C1 (some centres unmarked) [Example 10]", "> 7.60"],
  ["Nc1nn2ccc(N3CCC[C@@H]3c3cc(F)ccc3F)nc2c1C(=O)Nc1ccc(F)cc1 [Example 14]", "> 9.00"],
  ["NC(=S)c1c(N)nn2ccc(N3CCCC3c3cc(F)ccc3F)nc12 (centres unmarked) [Example 31]", "> 9.00"],
  ["CCOC(=O)c1c(N)nn2ccc(N3CC(=O)CC3c3cc(F)ccc3F)nc12 (centres unmarked) [Example 43]", "> 7.60"],
  ["CCOC(=O)c1c(NC)nn2ccc(N3CCC[C@@H]3c3cc(F)ccc3F)nc12 [Example 20]", "> 6.00"],
  ["CNC(=O)c1c(N)nn2ccc(N3C[C@@H](F)C[C@@H]3c3cc(F)ccc3F)nc12 [Example 39]", "> 9.00"],
  ["CCOC(=O)c1csc(-c2c(N)nn3ccc(N4CCCC4c4cc(F)ccc4F)nc23)n1 (centres unmarked) [Example 29]", "> 9.00"],
  ["Nc1cc2nc(N3CCCC3c3cc(F)ccc3F)ccn2n1 (centres unmarked) [Example 24]", "> 6.30"],
  ["Nc1nn2ccc(N3CCC[C@@H]3c3cc(F)ccc3F)nc2c1C(=O)N[C@H]1CC[C@H](O)CC1 [Example 12]", "> 9.00"],
  ["NC(=O)c1c(N)nn2ccc(N3C[C@@H](O)CC3c3cc(F)ccc3F)nc12 (stereo in doubt) [Example 47]", "> 6.00"]
]}

INPUT: What does the data say about its pIC50? Entry: Nc1nn2ccc(N3C[C@@H](F)C[C@@H]3c3cc(F)ccc3F)nc2c1C(=O)NCCO [Example 49]
OUTPUT: > 9.00

INPUT: What does the data say about its pIC50? Entry: Nc1nn2ccc(N3CCC[C@@H]3c3cc(F)ccc3F)nc2c1C(=O)O [Example 2]
OUTPUT: > 7.00

INPUT: What does the data say about its pIC50? Entry: Cn1cc(-c2c(N)nn3ccc(N4CCC[C@@H]4c4cc(F)ccc4F)nc23)cn1 [Example 34]
OUTPUT: > 9.00

INPUT: What does the data say about its pIC50? Entry: CCOC(=O)c1c(N)nn2ccc(N3CCCC3c3cc(F)ccc3F)nc12 (centres unmarked) [Example 5]
OUTPUT: > 9.00

INPUT: What does the data say about its pIC50? Entry: Cc1csc(-c2c(N)nn3ccc(N4CCCC4c4cc(F)ccc4F)nc23)n1 (centres unmarked) [Example 28]
OUTPUT: > 7.60

INPUT: What does the data say about its pIC50? Entry: N#Cc1c(N)nn2ccc(N3C[C@@H](O)C[C@@H]3c3cc(F)ccc3F)nc12 [Example 44]
OUTPUT: > 7.60

INPUT: What does the data say about its pIC50? Entry: CCOC(=O)c1c(N)nn2ccc(N3CC(F)(F)CC3c3cc(F)ccc3F)nc12 (centres unmarked) [Example 38]
OUTPUT: > 7.60
